Kindly supply the reported remaining at 1 h, 5 µM values for the records listed here.
Assay: Microsomal stability in dog liver microsomes assessed as compound remaining at 5 uM measured after 60 mins in presence of NADPH by HPLC analysis
Format: ADME, Canis lupus familiaris, Microsome
Settings: read-out: Stability
Report as a plain number; the unit % is understood.

# remaining at 1 h, 5 µM of CC(C)c1noc(N2CCC(Oc3ncnc4c(-c5ccc(S(C)(=O)=O)cc5F)csc34)CC2)n1 = 62

# remaining at 1 h, 5 µM of CS(=O)(=O)c1ccc(-c2csc3c(N4CCC(c5nc(C6CCCC6)no5)CC4)ncnc23)cc1 = 10

# remaining at 1 h, 5 µM of CC(C)c1noc(C2CCN(c3ncnc4c(-c5ccc(S(C)(=O)=O)cc5)csc34)CC2)n1 = 6
